Listed below: pIC50 values for each entry.
Molecular target: Voltage-dependent T-type calcium channel subunit alpha-1H (Homo sapiens)
Test: Channel blocking activity at recombinant human CaV 3.2 channel expressed in HEK293 cells assessed as inhibition of Ca2+ flux preincubated for 3 mins followed by CaCl2 addition by fluo-4 dye-based FLIPR assay
pIC50: −log10 of the molar value.

Known results for molecules:
- MOLECULE: "C[C@@H]1CN(Cc2ccccc2)c2cc(S(C)(=O)=O)ccc2[C@H](C)N1C(=O)Nc1cccnc1 (racemic)"
  EXPERIMENTAL VALUE: "< 5.10"
- MOLECULE: "C[C@@H]1CN(Cc2ccccc2)c2ccncc2[C@H](C)N1C(=O)NCc1ccccc1 (racemic)"
  EXPERIMENTAL VALUE: "< 4.96"

Now consider the entry below.
// pIC50 lookup, key: C[C@@H]1c2ccncc2N(Cc2ccccc2)C[C@H](C)N1C(=O)NCc1ccccc1
< 4.96

###

Assay: Intrinsic clearance in human liver microsomes at 1 uM up to 15 mins in presence of NADPH by LC-MS-MS analysis
Assay type: ADME
Conditions: read-out: CLH
MEASUREMENT LABEL: microsomal CLint at 1 µM (µL/min/mg)

- COMPOUND: "C[C@@H]1CN(Cc2ccccc2)c2cnccc2[C@H](C)N1C(=O)NCc1ccccc1 (racemic)"
  MEASUREMENT LABEL: "microsomal CLint at 1 µM"
  EXPERIMENTAL VALUE: 276
- COMPOUND: "C[C@@H]1CN(Cc2ccccc2)c2cccc(F)c2[C@H](C)N1C(=O)Nc1cccnc1 (racemic)"
  MEASUREMENT LABEL: "microsomal CLint at 1 µM"
  EXPERIMENTAL VALUE: 628
- COMPOUND: "C[C@@H]1CN(Cc2ccccc2)c2cccc(F)c2[C@H](C)N1C(=O)NC1COC1 (racemic)"
  MEASUREMENT LABEL: "microsomal CLint at 1 µM"
  EXPERIMENTAL VALUE: 375

a. C[C@@H]1CN(Cc2ccccc2)c2cc(C#N)ccc2[C@H](C)N1C(=O)Nc1cccnc1 (racemic)
b. C[C@@H]1CN(Cc2ccccc2F)c2ccccc2[C@H](C)N1C(=O)Nc1cccnc1 (racemic)
// task: argmin of microsomal CLint at 1 µM over [ a , b ] Please indicate the selected item by its label.
a

###

Target: Voltage-dependent T-type calcium channel subunit alpha-1H (Homo sapiens, UniProt O95180)
Sequence (O95180 whole entry): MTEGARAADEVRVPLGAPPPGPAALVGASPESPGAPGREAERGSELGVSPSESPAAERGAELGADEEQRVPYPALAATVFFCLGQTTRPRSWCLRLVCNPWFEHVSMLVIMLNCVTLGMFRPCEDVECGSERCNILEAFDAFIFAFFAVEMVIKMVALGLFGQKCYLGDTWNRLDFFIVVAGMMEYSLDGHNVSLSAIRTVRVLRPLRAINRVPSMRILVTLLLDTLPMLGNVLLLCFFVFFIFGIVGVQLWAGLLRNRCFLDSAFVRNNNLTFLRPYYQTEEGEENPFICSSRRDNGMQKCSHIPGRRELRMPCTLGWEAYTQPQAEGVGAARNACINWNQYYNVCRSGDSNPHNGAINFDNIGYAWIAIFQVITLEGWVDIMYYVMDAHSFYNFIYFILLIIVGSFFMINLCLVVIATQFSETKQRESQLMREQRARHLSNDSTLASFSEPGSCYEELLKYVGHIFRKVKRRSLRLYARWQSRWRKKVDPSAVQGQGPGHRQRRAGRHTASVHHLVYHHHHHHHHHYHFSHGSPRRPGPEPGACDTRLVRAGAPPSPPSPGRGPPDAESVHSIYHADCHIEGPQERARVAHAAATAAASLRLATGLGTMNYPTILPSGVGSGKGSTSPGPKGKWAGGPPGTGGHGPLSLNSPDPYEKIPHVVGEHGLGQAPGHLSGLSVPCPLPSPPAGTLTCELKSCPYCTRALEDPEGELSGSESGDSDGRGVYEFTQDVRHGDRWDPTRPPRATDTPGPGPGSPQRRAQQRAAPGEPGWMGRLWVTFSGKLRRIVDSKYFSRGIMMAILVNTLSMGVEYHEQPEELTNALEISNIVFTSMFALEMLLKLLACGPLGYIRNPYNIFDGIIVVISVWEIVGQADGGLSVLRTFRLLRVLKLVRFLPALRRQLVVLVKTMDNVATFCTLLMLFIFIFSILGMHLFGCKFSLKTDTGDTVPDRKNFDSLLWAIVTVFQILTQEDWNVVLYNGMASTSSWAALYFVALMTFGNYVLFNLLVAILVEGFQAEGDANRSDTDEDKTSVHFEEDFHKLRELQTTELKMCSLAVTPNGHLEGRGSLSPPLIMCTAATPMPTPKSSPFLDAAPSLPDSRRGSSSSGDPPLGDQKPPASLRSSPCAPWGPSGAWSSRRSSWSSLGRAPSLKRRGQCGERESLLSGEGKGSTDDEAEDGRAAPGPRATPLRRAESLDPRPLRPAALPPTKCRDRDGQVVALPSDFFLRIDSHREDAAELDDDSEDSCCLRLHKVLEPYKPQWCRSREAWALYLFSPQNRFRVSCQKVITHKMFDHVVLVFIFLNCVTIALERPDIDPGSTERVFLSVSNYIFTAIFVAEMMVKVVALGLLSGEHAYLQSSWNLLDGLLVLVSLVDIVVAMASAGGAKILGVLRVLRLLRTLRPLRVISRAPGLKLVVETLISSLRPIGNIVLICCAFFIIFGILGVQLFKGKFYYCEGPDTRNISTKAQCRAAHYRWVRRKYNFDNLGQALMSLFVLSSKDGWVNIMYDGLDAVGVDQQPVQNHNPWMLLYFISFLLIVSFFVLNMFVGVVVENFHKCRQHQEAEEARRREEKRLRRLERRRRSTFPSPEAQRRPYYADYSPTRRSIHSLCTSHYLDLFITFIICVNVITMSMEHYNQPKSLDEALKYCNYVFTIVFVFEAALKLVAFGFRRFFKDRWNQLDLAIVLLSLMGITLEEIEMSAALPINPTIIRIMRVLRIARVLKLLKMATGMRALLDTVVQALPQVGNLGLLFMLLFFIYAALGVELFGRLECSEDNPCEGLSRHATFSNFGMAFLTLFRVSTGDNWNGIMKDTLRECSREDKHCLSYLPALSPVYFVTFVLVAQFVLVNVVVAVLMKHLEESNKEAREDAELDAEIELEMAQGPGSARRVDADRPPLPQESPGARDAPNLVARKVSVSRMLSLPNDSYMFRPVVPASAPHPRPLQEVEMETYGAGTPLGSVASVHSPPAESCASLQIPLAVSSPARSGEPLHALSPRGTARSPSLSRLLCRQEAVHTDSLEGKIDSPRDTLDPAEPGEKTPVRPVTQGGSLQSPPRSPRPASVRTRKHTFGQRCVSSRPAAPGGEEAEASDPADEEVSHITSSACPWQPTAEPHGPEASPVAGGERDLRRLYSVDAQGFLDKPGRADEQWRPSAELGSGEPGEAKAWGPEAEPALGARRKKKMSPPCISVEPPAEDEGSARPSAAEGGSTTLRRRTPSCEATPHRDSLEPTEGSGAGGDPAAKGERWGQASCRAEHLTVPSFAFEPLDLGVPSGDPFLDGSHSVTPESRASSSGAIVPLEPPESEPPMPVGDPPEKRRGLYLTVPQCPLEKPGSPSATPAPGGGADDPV
Assay: Channel blocking activity at recombinant human CaV 3.2 channel expressed in HEK293 cells assessed as inhibition of Ca2+ flux preincubated for 3 mins followed by CaCl2 addition by fluo-4 dye-based FLIPR assay
pIC50: −log10 of the molar value.
MEASUREMENT LABEL: pIC50

Some solved cases for reference:
- MOLECULE: "C[C@@H]1CN(Cc2ccccc2)c2nnccc2[C@H](C)N1C(=O)NCc1ccccc1 (racemic)"
  SYSTEM NAME: "Voltage-dependent T-type calcium channel subunit alpha-1H (Homo sapiens, UniProt O95180)"
  pIC50: 6.16
- MOLECULE: "C[C@@H]1CN(Cc2ccccc2)c2ccccc2C(=O)N1CCc1ccccc1 (racemic)"
  SYSTEM NAME: "Voltage-dependent T-type calcium channel subunit alpha-1H (Homo sapiens, UniProt O95180)"
  pIC50: 6.21

P. C[C@@H]1CN(Cc2cccc(F)c2F)c2cnccc2[C@H](C)N1C(=O)NCc1ccccc1 (racemic)
Q. C[C@@H]1CN(Cc2ccccc2)c2ccccc2CN1C(=O)NCc1ccccc1 (racemic)
Looking only at measured pIC50, which entry is lower, P or Q ? The response must carry the label of the picked entry.
Q
(Q: 6.85, P: 7.14)

I. C[C@@H]1CN(Cc2ccccc2)c2ccccc2[C@H](C)N1C(=O)CCc1cccnc1 (racemic)
II. C[C@@H]1CN(Cc2cnc(C(F)(F)F)s2)c2ccccc2[C@H](C)N1C(=O)NCc1ccccc1 (racemic)
Please indicate which entry, I or II , has the lower recorded pIC50 value. Refer to your chosen item by its label in the answer.
I

I. C[C@@H]1CN(Cc2ccccc2)c2cnccc2[C@H](C)N1C(=O)Nc1cccnc1 (racemic)
II. C[C@@H]1CN(Cc2ccccc2)c2cccc(F)c2[C@H](C)N1C(=O)Nc1cccnc1 (racemic)
III. C[C@@H]1CN(Cc2ccc(C(F)(F)F)o2)c2ccccc2[C@H](C)N1C(=O)NCc1ccccc1 (racemic)
Hello, I need these entries ordered by pIC50, highest reading first. Thanks! Your task in answering is to list the labels in the requested order.
III, II, I
(III: 7.89, II: 7.28, I: 6.07)

###

Molecular target: Voltage-dependent T-type calcium channel subunit alpha-1G (Homo sapiens, UniProt O43497)
Sequence (O43497 whole entry): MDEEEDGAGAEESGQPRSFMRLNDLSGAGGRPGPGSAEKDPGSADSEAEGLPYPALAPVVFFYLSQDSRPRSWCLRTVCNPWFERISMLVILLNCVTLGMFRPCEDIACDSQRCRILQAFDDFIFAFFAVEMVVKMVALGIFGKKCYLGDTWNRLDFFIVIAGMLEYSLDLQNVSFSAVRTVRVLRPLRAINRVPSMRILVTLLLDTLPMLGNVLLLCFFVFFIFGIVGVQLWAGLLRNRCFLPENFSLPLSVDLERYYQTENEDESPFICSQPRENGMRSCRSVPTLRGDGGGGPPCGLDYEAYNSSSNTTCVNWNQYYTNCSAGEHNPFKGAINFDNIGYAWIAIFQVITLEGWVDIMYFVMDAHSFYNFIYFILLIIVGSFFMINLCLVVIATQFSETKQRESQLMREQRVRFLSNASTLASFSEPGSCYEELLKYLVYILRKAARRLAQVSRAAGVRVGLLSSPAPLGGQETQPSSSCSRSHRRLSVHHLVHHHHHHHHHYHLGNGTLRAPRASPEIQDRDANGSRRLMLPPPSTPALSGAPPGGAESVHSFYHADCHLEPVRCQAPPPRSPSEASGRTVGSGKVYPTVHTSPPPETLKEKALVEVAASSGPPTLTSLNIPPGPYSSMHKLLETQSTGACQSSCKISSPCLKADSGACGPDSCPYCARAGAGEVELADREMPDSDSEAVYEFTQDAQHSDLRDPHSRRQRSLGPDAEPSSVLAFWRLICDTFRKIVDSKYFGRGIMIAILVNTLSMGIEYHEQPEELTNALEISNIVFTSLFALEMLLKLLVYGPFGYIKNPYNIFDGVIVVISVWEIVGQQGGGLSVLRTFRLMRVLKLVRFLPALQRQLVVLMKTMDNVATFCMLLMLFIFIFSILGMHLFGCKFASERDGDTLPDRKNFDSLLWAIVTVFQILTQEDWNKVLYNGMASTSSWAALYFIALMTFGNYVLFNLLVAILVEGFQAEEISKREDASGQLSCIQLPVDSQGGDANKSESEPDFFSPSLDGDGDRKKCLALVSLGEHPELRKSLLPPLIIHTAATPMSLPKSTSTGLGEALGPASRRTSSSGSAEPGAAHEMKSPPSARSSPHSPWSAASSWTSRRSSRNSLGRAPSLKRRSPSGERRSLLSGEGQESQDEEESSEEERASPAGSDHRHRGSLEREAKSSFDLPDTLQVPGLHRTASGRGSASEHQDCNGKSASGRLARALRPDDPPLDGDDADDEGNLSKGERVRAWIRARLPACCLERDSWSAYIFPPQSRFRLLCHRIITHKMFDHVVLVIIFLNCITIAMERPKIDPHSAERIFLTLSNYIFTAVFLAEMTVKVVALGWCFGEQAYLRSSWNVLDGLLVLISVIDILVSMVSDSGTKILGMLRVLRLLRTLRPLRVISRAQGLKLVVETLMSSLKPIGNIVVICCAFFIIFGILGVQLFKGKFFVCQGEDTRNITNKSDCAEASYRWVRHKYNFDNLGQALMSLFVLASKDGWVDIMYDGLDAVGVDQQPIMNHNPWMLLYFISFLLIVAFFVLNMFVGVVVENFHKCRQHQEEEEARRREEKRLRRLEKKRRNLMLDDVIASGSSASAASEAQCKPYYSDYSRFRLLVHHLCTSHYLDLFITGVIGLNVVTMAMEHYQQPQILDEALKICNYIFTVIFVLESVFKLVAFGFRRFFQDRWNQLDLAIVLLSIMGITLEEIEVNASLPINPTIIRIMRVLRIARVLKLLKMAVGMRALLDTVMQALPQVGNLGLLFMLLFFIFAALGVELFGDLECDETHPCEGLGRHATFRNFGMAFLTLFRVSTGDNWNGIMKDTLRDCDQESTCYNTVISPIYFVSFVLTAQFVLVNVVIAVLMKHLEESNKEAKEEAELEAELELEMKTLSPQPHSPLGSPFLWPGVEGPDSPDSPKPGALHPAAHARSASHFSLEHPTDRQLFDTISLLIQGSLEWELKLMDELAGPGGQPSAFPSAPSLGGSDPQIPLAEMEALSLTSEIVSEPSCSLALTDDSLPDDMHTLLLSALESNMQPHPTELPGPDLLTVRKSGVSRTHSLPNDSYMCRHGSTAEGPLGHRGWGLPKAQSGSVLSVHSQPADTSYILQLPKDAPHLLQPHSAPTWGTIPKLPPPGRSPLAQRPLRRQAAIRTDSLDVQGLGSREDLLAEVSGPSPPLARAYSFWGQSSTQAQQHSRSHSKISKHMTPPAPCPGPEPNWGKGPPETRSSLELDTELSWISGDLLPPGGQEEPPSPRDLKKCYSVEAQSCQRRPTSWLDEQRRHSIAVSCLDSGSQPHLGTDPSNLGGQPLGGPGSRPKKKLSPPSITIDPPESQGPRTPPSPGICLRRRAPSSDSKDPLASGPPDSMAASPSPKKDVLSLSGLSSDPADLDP
Experiment: Channel blocking activity at recombinant human CaV 3.1 channel expressed in HEK293 cells assessed as inhibition of Ca2+ flux preincubated for 3 mins followed by CaCl2 addition by fluo-4 dye-based FLIPR assay
MEASUREMENT LABEL: IC50 (nM)

Record excerpt, results attached:
- COMPOUND: "C[C@@H]1CN(Cc2cnc(C(F)(F)F)s2)c2cccc(F)c2[C@H](C)N1C(=O)CCc1cccnc1 (racemic)"
  IC50 [nM]: 115
- COMPOUND: "C[C@@H]1CN(Cc2cccc(F)c2F)c2ccccc2[C@H](C)N1C(=O)NCc1ccccc1 (racemic)"
  IC50 [nM]: 5
- COMPOUND: "[2H]C([2H])(c1ccccc1)N1C[C@@H](C)N(C(=O)Nc2cccnc2)[C@@H](C)c2ccccc21 (racemic)"
  IC50 [nM]: 27
- COMPOUND: "C[C@@H]1CN(Cc2ccccc2)c2nc(F)ccc2[C@H](C)N1C(=O)NCc1ccccc1 (racemic)"
  IC50 [nM]: 7
- COMPOUND: "C[C@@H]1CN(Cc2ccccc2)c2ccccc2[C@H](C)N1C(=O)CN1CCOCC1 (racemic)"
  IC50 [nM]: 36

A. COc1ccc(CNC(=O)N2[C@H](C)CN(Cc3ccccc3)c3cnccc3[C@@H]2C)cc1 (racemic)
B. CC(C)CCN1C[C@@H](C)N(C(=O)CCc2cccnc2)[C@@H](C)c2ccccc21 (racemic)
Task for the reader: decide whether A or B has the larger IC50. Indicate your choice by writing its label.
A

I. C[C@@H]1CN(Cc2ccccc2)c2ccccc2[C@H](C)N1C(=O)N1CCOCC1 (racemic)
II. C[C@H]1CN(Cc2ccccc2)c2ccccc2[C@H](C)N1C(=O)NCc1ccccc1 (racemic)
Between I and II , whose measured IC50 reads higher? Refer to your chosen entry by its label in the reply.
II
(II: 279 nM, I: 26 nM)

###

Test: Intrinsic clearance in human liver microsomes at 1 uM up to 15 mins in presence of NADPH by LC-MS-MS analysis
Assay type: ADME
Conditions: read-out: CLH
Items are presented alongside their recorded microsomal CLint at 1 µM.

- COMPOUND: "C[C@H]1CN(Cc2ccccc2)c2ccccc2[C@H](C)N1C(=O)NCc1ccccc1 (racemic)"
  microsomal CLint at 1 µM: "> 1250 µL/min/mg"
- COMPOUND: "C[C@@H]1CN(Cc2ccccc2)c2ccccc2[C@H](C)N1C(=O)Cc1cncs1 (racemic)"
  microsomal CLint at 1 µM: "> 1250 µL/min/mg"
- COMPOUND: "C[C@@H]1CN(Cc2cccc(C(F)(F)F)n2)c2ccccc2[C@H](C)N1C(=O)NCc1ccccc1 (racemic)"
  microsomal CLint at 1 µM: "> 1250 µL/min/mg"
- COMPOUND: "C[C@@H]1CN(Cc2cnc(C(F)(F)F)s2)c2ccccc2[C@H](C)N1C(=O)NCc1ccccc1 (racemic)"
  microsomal CLint at 1 µM: "> 1250 µL/min/mg"
- COMPOUND: "COCCC(=O)N1[C@H](C)CN(Cc2ccccc2)c2ccccc2[C@@H]1C (racemic)"
  microsomal CLint at 1 µM: "> 1250 µL/min/mg"

Please look up its microsomal CLint at 1 µM: C[C@@H]1CN(Cc2ccccc2)c2ccccc2[C@H](C)N1C(=O)Nc1cccnc1 (racemic)
> 1250 µL/min/mg

// returns reported microsomal CLint at 1 µM for input COc1ccc(CNC(=O)N2[C@H](C)CN(Cc3ccccc3)c3ccccc3[C@@H]2C)cc1 (racemic)
> 1250 µL/min/mg

Return reported microsomal CLint at 1 µM; argument: C[C@@H]1CN(Cc2ccccc2)c2ccc(F)cc2[C@H](C)N1C(=O)Nc1cccnc1 (racemic)
> 1250 µL/min/mg

If you can, please state the reported microsomal CLint at 1 µM value of C[C@@H]1CN(Cc2ccccc2)c2cc(OCC(F)(F)F)ccc2[C@H](C)N1C(=O)Nc1cccnc1 (racemic) .
> 1250 µL/min/mg

Form field: reported microsomal CLint at 1 µM of CC(C)CCN1C[C@@H](C)N(C(=O)Nc2cccnc2)[C@@H](C)c2ccccc21 (racemic)
> 1250 µL/min/mg

Dear colleague, I am looking for the recorded microsomal CLint at 1 µM of the following compound: C[C@@H]1C(=O)N(Cc2ccccc2)c2ccccc2[C@H](C)N1C(=O)NCc1ccccc1 (racemic)
> 1250 µL/min/mg

Which microsomal CLint at 1 µM is reported for this compound? C[C@@H]1CN(Cc2ccc(C(F)(F)F)o2)c2ccccc2[C@H](C)N1C(=O)Nc1cccnc1 (racemic)
> 1250 µL/min/mg

I'd like to know its microsomal CLint at 1 µM. The compound in question is C[C@H]1c2ccccc2N(Cc2ccccc2)CCN1C(=O)NCc1ccccc1 (racemic)
> 1250 µL/min/mg

Numbers sourced from ChEMBL document CHEMBL3864167.
